Origin of measurements: patent US20240238423A9

Target system: Human BCL-XL protein (N-terminal HiBiT tagged BCL-XL in HT1080 cells) (Homo sapiens)
Construct: expressed in transfected cells; host or cells: HT-1080 (ATCC CCL-121), stably transduced with lentivirus pLV-UBC-N-HiBiT-BCL-XL-PGK-puro and selected with puromycin
Sequence (Q07817 whole entry): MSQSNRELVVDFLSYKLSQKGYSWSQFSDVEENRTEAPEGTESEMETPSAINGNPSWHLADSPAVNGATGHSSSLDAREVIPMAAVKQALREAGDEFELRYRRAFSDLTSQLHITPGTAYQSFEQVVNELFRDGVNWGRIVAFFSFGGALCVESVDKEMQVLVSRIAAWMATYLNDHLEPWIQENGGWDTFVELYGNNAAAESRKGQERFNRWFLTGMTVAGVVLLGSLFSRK
Assay info: HiBiT based degradation assay
Type: cell-based
Protocol conditions: BCL-XL degradation; HT1080 cells expressing HiBiT-BCL-XL; 24 h; read-out: EC50 (24 h)
Kindly supply the reported DC50 values for the records listed here.

[in] Give recorded DC50. Cc1c(O[C@H]2CC[C@H](C[C@@H](C)CCN3CCN(c4ccc5c(C6CCC(=O)NC6=O)nn(C)c5c4)CC3)CC2)cccc1-c1ccc(N2CCc3cccc(C(=O)Nc4nc5ccccc5s4)c3C2)nc1C(=O)O (single isomer, unassigned) [Compound 307b]
[out] < 100 nM

[in] Look up and report measured DC50 for this entry: Cc1c(OCCOC2CCN(CC(=O)Nc3cccc4c(C5CCC(=O)NC5=O)nn(C)c34)CC2)cccc1-c1ccc(N2CCc3cccc(C(=O)Nc4nc5ccccc5s4)c3C2)nc1C(=O)O (stereo not drawn)
[out] 100 to 1000 nM

[in] Dear colleague, please send me the reported DC50 for Cn1nc(C2CCC(=O)NC2=O)c2ccc(N3CCN(CCCC[C@H]4CC[C@H](Oc5cccc(-c6ccc(N7CCc8cccc(C(=O)Nc9nc%10ccccc%10s9)c8C7)nc6C(=O)O)c5C(F)(F)F)CC4)CC3)cc21 (stereo partly drawn) [Compound 319a] when you can.
[out] < 100 nM

[in] Name the recorded DC50 of the compound listed here: Cc1c(OCCOc2ccc(CC(=O)Nc3cccc4c(C5CCC(=O)NC5=O)nn(C)c34)cc2)cccc1-c1ccc(N2CCc3cccc(C(=O)Nc4nc5ccccc5s4)c3C2)nc1C(=O)O (stereo not drawn)
[out] 1000 to 10000 nM

[in] Tell me measured DC50 for Cc1c(O[C@H]2CC[C@H](CCCN3CCC(c4ccc5c(C6CCC(=O)NC6=O)nn(C)c5c4)CC3)CC2)cccc1-c1ccc(N2CCc3cccc(C(=O)Nc4nc5ccccc5s4)c3C2)nc1C(=O)O (stereo partly drawn) [Compound 269a] please.
[out] < 100 nM

[in] Please give the documented DC50 of Cc1c(OCCCN2CCN(CC(=O)Nc3cccc4c(C5CCC(=O)NC5=O)nn(C)c34)[C@H](C(F)(F)F)C2)cccc1-c1ccc(N2CCc3cccc(C(=O)Nc4nc5ccccc5s4)c3C2)nc1C(=O)O (stereo partly drawn) [Compound 218b]
[out] 100 to 1000 nM

[in] Let me know recorded DC50 for Cc1c(OCCCCCCCCN2CCN(c3cccc4c(C5CCC(=O)NC5=O)nn(C)c34)CC2)cccc1-c1ccc(N2CCc3cccc(C(=O)Nc4nc5ccccc5s4)c3C2)nc1C(=O)O (stereo not drawn) , thanks.
[out] < 100 nM

[in] In one line, give reported DC50 of the entry Cc1cc(OCC[C@@H](C)C2CCN(CC(=O)Nc3ccc4c(C5CCC(=O)NC5=O)nn(C)c4c3)CC2)ccc1-c1ccc(N2CCc3cccc(C(=O)Nc4nc5ccccc5s4)c3C2)nc1C(=O)O (single isomer, unassigned) [Compound 266a] .
[out] < 100 nM

[in] State, in one line, measured DC50 of Cc1c(OCCO[C@@H]2C[C@H]3CC[C@@H](C2)N3CC(=O)Nc2ccc3c(C4CCC(=O)NC4=O)nn(C)c3c2)cccc1-c1ccc(N2CCc3cccc(C(=O)Nc4nc5ccccc5s4)c3C2)nc1C(=O)O (stereo partly drawn) [Compound 174b]
[out] < 100 nM

[in] For Cc1c(OCCCN2CCN(CC(=O)Nc3ccc4c(C5CCC(=O)NC5=O)nn(C)c4c3)[C@H](C(F)(F)F)C2)cccc1-c1ccc(N2CCc3cccc(C(=O)Nc4nc5ccccc5s4)c3C2)nc1C(=O)O (stereo partly drawn) [Compound 187a] , write its DC50.
[out] < 100 nM

[in] Output measured DC50 for this item: Cc1c(OCCCC2CCN(CCCc3ccc4c(C5CCC(=O)NC5=O)nn(C)c4c3)CC2)cccc1-c1ccc(N2CCc3cccc(C(=O)Nc4nc5ccccc5s4)c3C2)nc1C(=O)O (stereo not drawn)
[out] < 100 nM

[in] Supply reported DC50 belonging to this compound: Cc1c(OCCC2CCN(CCCC3CCN(c4ccc5c(C6CCC(=O)NC6=O)nn(C)c5c4)CC3)CC2)cccc1-c1ccc(N2CCc3cccc(C(=O)Nc4nc5ccccc5s4)c3C2)nc1C(=O)O (stereo not drawn)
[out] < 100 nM

[in] State its DC50 for this compound: Cn1nc(C2CCC(=O)NC2=O)c2ccc(NC(=O)CN3CCC(CCCOc4cccc(-c5ccc(N6CCc7cccc(C(=O)Nc8nc9ccccc9s8)c7C6)nc5C(=O)O)c4)CC3)cc21 (stereo not drawn)
[out] < 100 nM

[in] Tell me its DC50 given Cc1c(OCC[C@H]2CCN(CC(=O)Nc3cccc4c(C5CCC(=O)NC5=O)nn(C)c34)C2)cccc1-c1ccc(N2CCc3cccc(C(=O)Nc4nc5ccccc5s4)c3C2)nc1C(=O)O (stereo partly drawn) [Compound 231b] as the entry.
[out] < 100 nM

[in] Recall and state the measured DC50 for Cc1c(OCCC(F)(F)C2CCN(CC(=O)Nc3ccc4c(C5CCC(=O)NC5=O)nn(C)c4c3)CC2)cccc1-c1ccc(N2CCc3cccc(C(=O)Nc4nc5ccccc5s4)c3C2)nc1C(=O)O (stereo not drawn) .
[out] < 100 nM

[in] Please look at this compound and report its DC50: Cc1cc(Oc2ccc(CCC(=O)Nc3ccc4c(C5CCC(=O)NC5=O)nn(C)c4c3)cc2)ccc1-c1ccc(N2CCc3cccc(C(=O)Nc4nc5ccccc5s4)c3C2)nc1C(=O)O (stereo not drawn)
[out] 100 to 1000 nM

[in] Complete the entry with DC50 for Cc1c(O[C@H]2CC[C@H](CCC(=O)Nc3cccc4c(C5CCC(=O)NC5=O)nn(C)c34)CC2)cccc1-c1ccc(N2CCc3cccc(C(=O)Nc4nc5ccccc5s4)c3C2)nc1C(=O)O (stereo partly drawn) [Compound 124a]
[out] < 100 nM

[in] Tell me DC50 reported for Cc1c(OCCC[C@@H]2CCN(CC(=O)Nc3cccc4c(C5CCC(=O)NC5=O)nn(C)c34)CC2(F)F)cccc1-c1ccc(N2CCc3cccc(C(=O)Nc4nc5ccccc5s4)c3C2)nc1C(=O)O (stereo partly drawn) [Compound 197b]
[out] 100 to 1000 nM
